# SYSTEM UNDER TEST: Cytochrome P450 2D6 (Homo sapiens) (UniProt P10635)
# Sequence (P10635 whole entry, looked up): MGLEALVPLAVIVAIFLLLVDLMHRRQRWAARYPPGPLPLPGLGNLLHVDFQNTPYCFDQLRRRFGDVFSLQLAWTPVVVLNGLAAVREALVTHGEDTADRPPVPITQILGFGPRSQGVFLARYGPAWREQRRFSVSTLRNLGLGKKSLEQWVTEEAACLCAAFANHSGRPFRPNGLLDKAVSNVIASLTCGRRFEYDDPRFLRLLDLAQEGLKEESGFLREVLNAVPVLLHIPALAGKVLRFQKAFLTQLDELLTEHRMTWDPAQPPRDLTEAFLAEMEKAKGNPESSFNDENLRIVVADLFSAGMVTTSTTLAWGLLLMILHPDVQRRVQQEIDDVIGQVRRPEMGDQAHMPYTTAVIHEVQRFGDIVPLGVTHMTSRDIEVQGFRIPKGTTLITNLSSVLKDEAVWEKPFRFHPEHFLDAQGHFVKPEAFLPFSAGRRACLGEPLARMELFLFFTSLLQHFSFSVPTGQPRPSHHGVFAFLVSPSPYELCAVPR
# ASSAY NOTES: Cytochrome P450 family 2 subfamily D member 6 (CYP2D6) small molecule antagonists: luciferase biochemical (cell-free) qHTS assay (AID 1645840); also: nearly all actives have a fitted effect of over 55% in size
# PROTOCOL CONDITIONS: P450-Glo CYP2D6 enzyme, luciferin luminescence, 1 h; series mostly up to 57.4 µM
Results filed as inconclusive are left out. The source made the active and inactive calls. Calls follow the shape of the dose curve; as a rule, active = well fitted inhibition curve with a large enough effect in the repeat runs; inconclusive = weak or mixed curves; inactive = flat fitted curve, though single readings scatter.
Your reply should match one of these outcome classes. label 1 for active, label 0 for inactive

MOLECULE | CLASS LABEL
CC(C)c1ccc(-c2cc(=O)c3ccccc3o2)cc1 | label 1

Write down the call the test reported for this molecule. Item: Fc1ccc(-n2cc(CCCCN3CCC4(CC3)OCc3ccccc34)c3ccccc32)cc1
label 1

Write down the call the test reported for this molecule. Item: NC(=O)c1nc(Nc2ccccc2)sc1NC(=O)C1CCCCC1
label 0

Write down the call the test reported for this molecule. Item: COc1ccc2c(c1O[C@H]1CCNC1)CCC2
label 1

Write down the call the test reported for this molecule. Item: CC(C)S(=O)(=O)NC[C@H](C)c1ccc(-c2ccc(CCNS(C)(=O)=O)cc2)cc1
label 0

Write down the call the test reported for this molecule. Item: C[C@H](CN(C)C)Oc1nc(Nc2cc3cccc(Cl)c3cn2)cnc1C#N
label 1

The origin of these recorded values is PubChem BioAssay (NCATS).
